tested on: LOX IMVI melanoma; test: NCI-60 one-dose screen, 48 h; conditions: 10 µM unless noted
About 83,000 compounds went through this panel and 20% of them were active in at least one assay; those are over-represented in the sample as a whole. Active and inactive are the calls of the source. Rule for the calls: active = growth percent below 10; inactive = the rest.
Labels: yes = active, no = inactive

compound	qualitative label
O=c1cc(C2NCCc3c2[nH]c2ccccc32)c2c(ccc3ccccc32)o1 (stereo not given)	no
CCn1cc(C(=O)O)c(=O)c2cc(F)c(N3CCN(S(=O)(=O)c4ccc(OC)c(OC)c4)CC3)cc21	no
COc1ccc(/C=C2\Oc3cc(OCCN4CCCC4)ccc3C2=O)c(OC)c1	no
COc1cccc(-c2nc3sccn3c2-c2ccnc(NCCCNS(=O)(=O)c3ccccc3)n2)c1	no
Cc1nc(Nc2cccnc2)sc1C(=O)/C=C/c1ccc(F)cc1	yes
COc1ccc(/C=C\c2cc(OC)c(OC)c(OC)c2)c(NS(=O)(=O)c2ccc(C(C)(C)C)cc2)c1O	no
CCCCOc1nc2c(C)cccc2cc1C1CNC(=O)c2ccccc2N1 (stereo not given)	no
CCOC(=O)/C=C\C(=O)NC(N)=O	no
COc1cc(NCCCN=C(N)NC(N)=NC(C)C)c2ncccc2c1	no
COc1cc2c(cc1OCCCCn1c(-c3cc(=O)c4ccccc4o3)nc3ccccc31)N=C[C@@H]1CCCN1C2=O	no

---

system: SR leukemia; assay: NCI-60 one-dose screen, 48 h; settings: 10 µM unless noted
About 83,000 compounds went through this panel and 20% of them were active in at least one assay; those are over-represented in the sample as a whole. The source made the active and inactive calls. How the source made its calls: active means growth percent below 10; inactive means the rest.
Classes used: y (active), n (inactive)

compound	qualitative label
CCCn1c(=S)sc2c(Cl)nc(C)nc21	n
O=Nc1c(-c2c(O)[nH]c3ccc([N+](=O)[O-])cc23)[nH]c2ccc(O)cc12	y
O=c1cc(C2NCCc3c2[nH]c2ccccc32)c2c(ccc3ccccc32)o1 (stereo unspecified)	n
CC(C)N(Cc1ccc(CN(C(=O)CCl)C(C)C)cc1)C(=O)CCl	y
CCC(c1ccc(OC)cc1)C(CC)c1ccc(OCC[N+](C)(C)C)cc1 (stereo unspecified)	n
O=C(Nc1ccc(I)cc1)c1cccc([N+](=O)[O-])c1O	n
O=C(CCCn1c(=O)c2sc3ccccc3c2n2nnc(-c3ccccc3)c12)NCCc1cnc[nH]1	n
c1ccn2nnnc2c1	n
CCN1C(=O)N(CC)C2Nn3c(s/c(=C\c4cccc(F)c4)c3=O)=NC21 (stereo unspecified)	n
CCSc1nnc(NC(=O)Cc2ccc(Cl)cc2)s1	n
O=P([O-])(O)OP(=O)([O-])O.[NH-][C@H]1CCCC[C@@H]1[NH-].[OH-].[OH-].[Pt+4]	n

---

system: HCT-116 colon; assay: NCI-60 one-dose screen, 48 h; conditions: 10 µM unless noted
The panel holds about 83,000 compounds, 20% with a hit somewhere; the sample as a whole holds those more often. Active and inactive are the calls of the source. Rule for the calls: active = growth percent below 10; inactive = the rest.
Possible outcomes: y = active, n = inactive

compound	qualitative label
CCN1C(=O)N(CC)C2C1NN=c1s/c(=C\c3cccc(F)c3)c(=O)n12 (stereo not given)	y
CCC#CC[C@H]1C/C=C2/C(=O)C=C[C@@H]2C/C=C\CCCC(=O)O1	y
Cn1c(=O)c2c(nc3n2CCN(CCc2ccc(OCCN4CCOCC4)cc2)C3)n(C)c1=O	n
COc1ccc(OC)c(C(=O)c2oc3ccc(Br)cc3c2N)c1	n
COc1cc(NCCN=C(N)NC(N)=NC(C)C)c2ncccc2c1	n
Cc1nn(-c2ccc(Cl)cc2)c(=O)n1CCOc1ccccc1Cl	n
Cc1ccc2c(c1)C(C)Cc1c(N(C)C)ncnc1N2C (stereo not given)	n
Nc1cc2c(cc1N)-c1cc(N)c(N)cc1C2	n
CCCCCCCCCCC/C=C\C[C@H](O)C/C=C1/C(=O)C=C[C@@H]1C/C=C\CCCC(=O)OC	y
COc1ccc(NC(=S)/N=c2\oc3c(OC)cccc3cc2-c2cc3ccccc3[nH]2)cc1	n

---

System: MDA-MB-435 melanoma
Test: NCI-60 one-dose screen, 48 h
Details: 10 µM unless noted
Method: Growth inhibition of the MDA-MB-435 human Melanoma tumor cell line is measured as a screen for anti-cancer activity. Cells are grown in 96 well plates and exposed to the test compound for 48 hours. Compounds are tested at a single concentration, which is 10^-5 M for most compounds. The reported endpoint is percent growth (GI% or GIPRCNT), where numbers from 0 - 100% represent growth inhibition, and numbers from -100% - 0 represent cell death. […]
About 83,000 compounds went through this panel and 20% of them were active in at least one assay; those are over-represented in the sample as a whole. The source made the active and inactive calls. How the source made its calls: active means growth percent below 10; inactive means the rest.
Outcome codes: yes (1) (active), no (0) (inactive)

compound	qualitative label
CC(=O)n1cc([C@H]2CC[C@H](c3cn(C(C)=O)c4ccccc34)c3c2[nH]c2ccccc32)c2ccccc21	no (0)
C=CCn1c(C)nc2ccc(Nc3nc(Nc4ccc(F)cc4)nc4ccccc34)cc21	no (0)
COc1ccc(Cl)cc1NC(N)=S	no (0)
COc1ccc(/C=C\c2cc(OC)c(OC)c(OC)c2)c(NS(=O)(=O)c2ccc(C(C)(C)C)cc2)c1O	yes (1)
COc1ccc(OC)c(-c2ccc(-c3ccccc3N)c3[nH]c4ccccc4c23)c1	no (0)
COc1cccc(-c2nc3sccn3c2-c2ccnc(NCCCNS(=O)(=O)c3ccc(F)cc3)n2)c1	no (0)
NCCSC(c1ccccc1)(c1ccccc1)c1ccccc1	yes (1)
COc1ncc(-c2ccc3ncnc(Nc4cccc(Cl)c4)c3c2)cc1NS(=O)(=O)C1CC1	no (0)
O=c1[nH]c2ccccc2cc1-c1nnc(Cc2ccccc2)o1	no (0)
NC(=S)NN=C1CCCCC1	no (0)
COc1ccc(OC)c(C(=O)c2oc3ccc(Br)cc3c2N)c1	yes (1)
Cc1cc(C(=O)CSc2nc3ccccc3c(=O)[nH]2)c(C)n1C	no (0)
COc1ccc(C(=O)c2cc(OC)c(OC)c(OC)c2)cc1/C=C/C(=O)c1ccc2c(c1)OCO2	no (0)
Cc1ccc(C2=NN(c3ccc(S(N)(=O)=O)cc3)C(c3cn(-c4ccccc4)nc3-c3ccccc3)C2)cc1 (stereo unspecified)	no (0)
CC(=O)Nc1ccc(S(=O)(=O)N2C(=O)CCC2C(=O)Nc2ccccc2)cc1 (stereo unspecified)	no (0)
NC(=O)c1c(NC(=O)c2ccc3c(c2)OCO3)sc2c1CCC(=O)C2	yes (1)
O=C(O)c1cccc([N+](=O)[O-])c1/C=C/c1ccccc1	no (0)
O=C(Nc1cccc(Cl)c1)c1cc([N+](=O)[O-])ccc1O	no (0)
CN1CCN(CCCOc2ccc3nc(Nc4ccc(C(F)(F)F)c(Cl)c4)ccc3c2)CC1	yes (1)
CC(=O)Nc1nc(C(=O)N2N=C(C)/C(=C/c3ccc(Cl)cc3)C2=O)cs1	no (0)
N#Cc1ncc(-c2ccc(F)c(F)c2F)c(NC2CCCCCC2)n1	no (0)

---

tested on: MOLT-4 leukemia; experiment: NCI-60 one-dose screen, 48 h; conditions: 10 µM unless noted
Compounds without any hit were thinned out: in the full panel of roughly 83,000, 20% have a hit. Active and inactive are the calls of the source. How the source made its calls: active means growth percent below 10; inactive means the rest.
Outcomes: true (1) = active, false (0) = inactive

entry smiles	qualitative label
Cc1ccc(-c2csc3nc(C)c(CCCl)c(=O)n23)cc1	false (0)
O=C(Nc1ccc(I)cc1)c1cccc([N+](=O)[O-])c1O	true (1)
Cc1ccc(Nc2ncnc3c2sc2ncccc23)cc1	false (0)
COc1cc(NS(C)(=O)=O)ccc1Nc1c2ccc([N+](=O)[O-])cc2nc2c(C)cccc12	true (1)
Cc1ccc2nc(-c3c(N)n[nH]c3CCCO)[nH]c(=O)c2c1	false (0)
COc1cc(CCn2nnc3c(Nc4ccc(N5CCOCC5)cc4)ncnc32)cc(OC)c1	false (0)
CCn1cc(C(=O)O)c(=O)c2cc(F)c(N3CCN(S(=O)(=O)c4ccc(Cl)cc4Cl)CC3)cc21	true (1)
COc1ccc(-c2nc3sccn3c2-c2ccnc(NCCCNS(=O)(=O)c3ccc4ccccc4c3)n2)cc1	false (0)
COc1ccc(/C=C/C(=O)c2cccc(B(O)O)c2)cc1O	false (0)
O=S(=O)(NCCCNc1cc(-c2cn(-c3ccccc3)nc2-c2cccc(O)c2)ccn1)c1ccc(Br)cc1	true (1)

---

Parameter growth: see the listing below.
tested on: NCI/ADR-RES ovarian; assay: NCI-60 one-dose screen, 48 h (100 = growth as untreated, 0 = no growth, -100 = all killed); conditions: 10 µM unless noted
The panel holds about 83,000 compounds, 20% with a hit somewhere; the sample as a whole holds those more often.

molecule	result unit	growth
CC(C)(C)OC(=O)N1C/C(=C\c2cccs2)C(=O)/C(=C/c2cccs2)C1	%	96.3
O=C(/C=C/CN1CCCCC1)Nc1cc2c(Nc3ccc(F)c(Cl)c3F)ncnc2cc1OCCOC(F)F	%	9.16
COc1cc(NCCCN=C(N)NC(N)=NC(C)C)c2ncccc2c1	%	98.8
COc1ccc(/C=C2\Oc3cc(OCCN4CCCC4)ccc3C2=O)c(OC)c1	%	91.9
N=C(N)c1ccc(-c2ccc(-c3ccc(Cl)cc3)o2)nc1	%	-69.7
CC(C(=O)n1cc(-c2ccccc2)c(-c2ccccc2)c1)c1ccccc1 (stereo not given)	%	106
COc1ccc(C2CC(=O)Nc3c2c(C)nn3-c2nc3ccccc3[nH]2)cc1OC (stereo not given)	%	77.7
Cc1cc2c(C(C)C)c(O)c(O)c(C=NCCCCCCC(=O)O)c2c(O)c1-c1c(C)cc2c(C(C)C)c(O)c(O)c(C=NCCCCCCC(=O)O)c2c1O	%	67.6
CC/C=C\C/C=C\C[C@H]1C/C=C2/C(=O)C=C[C@H]2C/C=C\CCC(=O)O1	%	17.9
COc1cc(-c2cc(/C=C3\CCCCC3=O)[nH]n2)cc(OC)c1OC	%	103
c1ccn2nnnc2c1	%	102
O=S(=O)(NCCCNc1cc(-c2cn(-c3ccccc3)nc2-c2cccc(O)c2)ccn1)c1ccc(Cl)cc1	%	23.7
CN(C)c1ncc(-c2ccc(C(F)(F)F)cc2)c(NC2CCCCCC2)n1	%	82.1
O=C(O)c1cccc([N+](=O)[O-])c1/C=C/c1ccccc1	%	103
CCO/C=N/NC(=O)c1ccncc1	%	111
COc1cc(CCn2nnc3c(Nc4ccc(N5CCOCC5)cc4)ncnc32)cc(OC)c1	%	86.3
O=C(Nc1ccc(F)cc1)c1cc([N+](=O)[O-])ccc1O	%	72.9
C[N+](C)(C)c1ccc(CC2c3ccccc3-c3ccccc32)cc1	%	107
CC(=O)OCC1OC(OCC2OC(OC(C)=O)C(OC(C)=O)C(OC(C)=O)C2OC(C)=O)C(OC(C)=O)C(OC(C)=O)C1OC(C)=O (stereo not given)	%	101
COC1=CC(c2ccc[nH]2)=N/C1=C\c1[nH]c(C)c(C(=O)CCCCC(=O)NCc2ccccc2)c1C	%	42
